Tested on: HepG2
METHOD DESCRIPTION: GSK_TCMDC: Percent inhibition of human HepG2 cell line. Test compounds present at 10uM.
Format: functional
Hi there, I'd appreciate the recorded Inhibition for every entry that follows.
Give bare numbers, in %.

Cc1ncsc1CCN1C(=O)CC2(C1=O)C(=O)N(Cc1ccccc1)c1ccc(Cl)cc12 (stereo unspecified) : 0
Cc1ccc(C(=O)N2CCc3cc4nccc(N5CCN6CCC[C@H]6C5)c4cc32)cc1 : 5
Cc1cc(=NN=Cc2ccc(F)cc2)c2cc(C(F)(F)F)ccc2[nH]1 : 2
O=C(O)C(F)(F)F.c1cc(CN2CCN(CCN3CCOCC3)CC2)cc(-c2cccc(-c3nc4ccccc4[nH]3)c2)c1 : 29
COC(=O)c1ccc(NC(=O)Nc2cccc(CCNCc3ccccc3)c2)cc1.O=C(O)C(F)(F)F : 2
CO/C(=C\C=C\c1cc2cc(Cl)c(Cl)cc2[nH]1)C(=O)NCCCN1CCN(c2ccncc2)CC1 : 12

Field: Inhibition. Fill in for each record below.
1. C[C@@]12C[C@@H](Nc3nc(NCCc4ccc(O)cc4)nc(N4CCNCC4)n3)C[C@@H](C1)c1cccc(Cl)c1O2.O=C(O)C(F)(F)F
2. CCn1c(-c2nonc2N)nc2c(-c3cccc(NC(=O)Nc4cccc(Cl)c4)c3)ncc(OCCCN)c21.O=C(O)C(F)(F)F
3. O=C(/C=C/c1ccc(C(F)(F)F)cc1)NCCCCCN1CCCN(C(=O)Nc2ccc(Cl)c(C(F)(F)F)c2)CC1
4. Cc1cc(Nc2ccncc2)n2nc(C)c(-c3ccccc3Cl)c2n1
5. CCCNC(=O)c1ccc(N2CCC(c3ccccc3C)CC2)nc1.O=C(O)C(F)(F)F
6. CNC(=O)C(NC(=O)c1ccccc1C(=O)OC)c1ccccc1 (stereo unspecified)

A.
[92, 9, 64, 2, 6, 4]

Field: Inhibition. Fill in for each record below.
1. CN(C)c1cccc2c(S(=O)(=O)Nc3cccc(CCN4CCC(N5CCCCC5)CC4)c3)cccc12
2. O=C(Cc1c[nH]cn1)Nc1ccc(-c2ccc(-c3nc4cc(C(F)(F)F)ccc4[nH]3)s2)cc1
3. CCC1CN2CCc3cc(OC)c(OC)cc3C2CC1CC1NCCc2cc(OC)c(OC)cc21.Cl (stereo unspecified)

A.
1: 41; 2: 48; 3: 42

# credit: ChEMBL document CHEMBL1157539
